- assay target: Gastrin/cholecystokinin type B receptor (Cavia porcellus)
- procedure details: Displacement of [125I]-BH CCK-8S from Cholecystokinin type B receptor in guinea pig cortex
quantity: IC50 (nM)
Provide only the numeric value, understood in nM.

Cc1cccc(NC(=O)NC2N=C(N3CCNCC3)c3ccccc3N(C)C2=O)c1 (centres undefined); 880

Suppose we examine the compound Cc1cccc(NC(=O)N[C@@H]2N=C(c3ccccc3)c3ccccc3N3C[C@H](C)N=C23)c1 ; what IC50 value has been reported? 1.8

Suppose we examine the compound CCCN1C(=O)C(NC(=O)Nc2cccc(C(F)(F)F)c2)N=C(N2CCN(C)CC2)c2ccccc21 (centres undefined) ; what IC50 value has been reported? 12
